Sourced from patent US11352350B2

target.of.assay: IRAK4 (Homo sapiens (Human))
Sequence (Q9NWZ3 whole entry): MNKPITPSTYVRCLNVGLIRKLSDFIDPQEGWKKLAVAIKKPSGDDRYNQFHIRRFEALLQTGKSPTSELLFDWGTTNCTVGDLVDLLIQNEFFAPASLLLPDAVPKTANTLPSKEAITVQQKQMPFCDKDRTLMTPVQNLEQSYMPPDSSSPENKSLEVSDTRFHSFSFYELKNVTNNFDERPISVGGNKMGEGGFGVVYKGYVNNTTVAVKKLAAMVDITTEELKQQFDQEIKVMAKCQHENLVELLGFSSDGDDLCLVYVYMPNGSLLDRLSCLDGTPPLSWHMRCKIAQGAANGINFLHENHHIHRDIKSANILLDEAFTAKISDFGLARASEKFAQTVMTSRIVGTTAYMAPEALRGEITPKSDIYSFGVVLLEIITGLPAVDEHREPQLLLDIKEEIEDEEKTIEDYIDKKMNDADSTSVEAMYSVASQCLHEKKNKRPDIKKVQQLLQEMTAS
assay.remarks: IRAK4 MSD degradation in OCI-LY10
Format: cell-based
condition.context: OCI-LY10, 24 hrs, MSD; read-out: IRAK4 MSD degradation in OCI-LY10 at 24 hrs: Average external-Abs DC50
measured.endpoint: DC50

Req: # returns recorded DC50 (system: IRAK4 (Homo sapiens (Human))) for Cn1c(=O)n(C2CCC(=O)NC2=O)c2cccc(CN3CCC(CCN4CCC(n5cc(NC(=O)c6coc(-c7ccnc(NCC8CC8)c7)n6)c(C(F)F)n5)CC4)CC3)c21 (centres unmarked) [I-264]
Resp: < 10 nM

Req: # returns recorded DC50 (system: IRAK4 (Homo sapiens (Human))) for CC[C@@H]1CC(=O)N[C@@H]1COc1ncc(C#C[C@H]2CC[C@@H](CN3CCC(OCCCc4cccc5c4n(C)c(=O)n5C4CCC(=O)NC4=O)CC3)CC2)c2cc(C(N)=O)c(OC)cc12 (some centres unmarked) [I-202]
Resp: 10 to 100 nM

Req: # returns recorded DC50 (system: IRAK4 (Homo sapiens (Human))) for CC[C@@H]1[C@H](F)C(=O)N[C@@H]1COc1ncc(C#C[C@H]2CC[C@H](CN(C)CCCOCCCN)CC2)c2cc(C(N)=O)c(OC)cc12 [I-316]
Resp: > 1000 nM
